Data provenance is the supplement of paper PMC6555819.

- Test system: PPARa:RXRa (NR concentration 270 nM, RXRa partner concentration 90 nM)
- measurement protocol: PBM binding z-score (relative to random genomic background probes); higher = stronger binding; sequences stand for … in GC…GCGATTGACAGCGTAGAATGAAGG
Reported PBM binding z-score values are given for each entry in this list.
Quick one: just the number, no unit, thanks!

>  <residues>
CCTACTGGGCCAAAGGGCATTGATTCCAATGCTC

>  <test target>
PPARa:RXRa (NR concentration 270 nM, RXRa partner concentration 90 nM)

>  <measurement kind>
PBM binding z-score

>  <data value>
4.61

$$$$
>  <residues>
CCTTACGGGTCATTGACAGGTTATAGCATTTGGA

>  <test target>
PPARa:RXRa (NR concentration 270 nM, RXRa partner concentration 90 nM)

>  <measurement kind>
PBM binding z-score

>  <data value>
5.27

$$$$
>  <residues>
CAAACTAGGTCACAGACGTCAAAGTCCGTGCGTA

>  <test target>
PPARa:RXRa (NR concentration 270 nM, RXRa partner concentration 90 nM)

>  <measurement kind>
PBM binding z-score

>  <data value>
5.37

$$$$

Lookup: Give the observed PBM binding z-score of `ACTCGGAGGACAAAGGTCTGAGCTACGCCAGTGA` for PPARa:RXRa (NR concentration 270 nM, RXRa partner concentration 90 nM).
Found: 0.582

Lookup: Give the observed PBM binding z-score of `CCGACTGGGGCCGAAAGGTTACCATACCATCCGG` for PPARa:RXRa (NR concentration 270 nM, RXRa partner concentration 90 nM).
Found: 2.02

Lookup: Give the observed PBM binding z-score of `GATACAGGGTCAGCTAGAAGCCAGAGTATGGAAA` for PPARa:RXRa (NR concentration 270 nM, RXRa partner concentration 90 nM).
Found: 4.45

Lookup: Give the observed PBM binding z-score of `TCAGACAGGTGAAGGTAACTCATGTACGCAGTCG` for PPARa:RXRa (NR concentration 270 nM, RXRa partner concentration 90 nM).
Found: 1.26

Lookup: Give the observed PBM binding z-score of `TCTGGGAGGACACGAAAGGTCAGAGCTCGACATC` for PPARa:RXRa (NR concentration 270 nM, RXRa partner concentration 90 nM).
Found: 3.51

Lookup: Give the observed PBM binding z-score of `TCATATAGGTAAAGGCTAGGTGAAAGTCCGATCT` for PPARa:RXRa (NR concentration 270 nM, RXRa partner concentration 90 nM).
Found: 1.71

----------
- Tested on: FXR:RXRa (NR concentration 270 nM, RXRa partner concentration 90 nM)
- measurement protocol: PBM binding z-score (relative to random genomic background probes); higher = stronger binding; sequences stand for … in GC…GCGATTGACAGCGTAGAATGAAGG
measurement kind: PBM binding z-score
Quick one: just the number, no unit, thanks!

Below, 5 sequences whose answers are already recorded.
>  <residues>
CCTATTAGTTGACCATAACGGCAACCGAAGCTCG

>  <PBM binding z-score>
0.455

$$$$
>  <residues>
GCGACTGGGGCAAAGCAGATTACCATAAGGTTGG

>  <PBM binding z-score>
-0.443

$$$$
>  <residues>
GCGACTGGGGCATCAGCAGGCTACCATAACTTAA

>  <PBM binding z-score>
-0.662

$$$$
>  <residues>
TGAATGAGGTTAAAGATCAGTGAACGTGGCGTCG

>  <PBM binding z-score>
3.15

$$$$
>  <residues>
CCAGACAGGTGAGTAGGTAACTCAGCCTCGATTA

>  <PBM binding z-score>
0.327

$$$$

Lookup: Item `CCTCGGAGGACAGAACGTCAGAGCTGTCCGCTTT` : provide PBM binding z-score
Found: -0.455

Lookup: Item `ACTTACGGGTCAACGAGGGTATAGCACGCGTATA` : provide PBM binding z-score
Found: 6.96

Lookup: Item `CCTCGCAGGACAGAAGGTCAGAGCTGTCCGCTTT` : provide PBM binding z-score
Found: 1.07

Lookup: Item `CCTACTGGGCCAAAAAGGTCATTGAAGCCGATAA` : provide PBM binding z-score
Found: 3.74
